Target: T1, extracellular domain of human CD73 protein (CD73-ECD), C-terminus polyhistidine-tagged (UniProt P21589 27-547)
T1 chain: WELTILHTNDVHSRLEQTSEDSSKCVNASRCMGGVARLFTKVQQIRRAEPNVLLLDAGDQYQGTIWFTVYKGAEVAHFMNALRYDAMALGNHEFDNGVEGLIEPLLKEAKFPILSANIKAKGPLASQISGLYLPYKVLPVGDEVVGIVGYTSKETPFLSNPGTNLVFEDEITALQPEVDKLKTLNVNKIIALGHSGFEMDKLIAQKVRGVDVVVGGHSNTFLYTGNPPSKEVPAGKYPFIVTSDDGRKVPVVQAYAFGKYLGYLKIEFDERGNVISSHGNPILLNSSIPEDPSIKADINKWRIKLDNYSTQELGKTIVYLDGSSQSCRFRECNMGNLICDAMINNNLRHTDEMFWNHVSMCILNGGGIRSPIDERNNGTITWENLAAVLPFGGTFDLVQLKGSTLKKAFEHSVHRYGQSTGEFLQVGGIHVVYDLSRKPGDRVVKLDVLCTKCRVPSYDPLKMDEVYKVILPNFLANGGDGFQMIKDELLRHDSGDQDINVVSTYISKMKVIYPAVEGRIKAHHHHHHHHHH
Assay: enzyme inhibition; left table
Listing: IC50 of selected binders

{"binder": "Hu002c-4 (antibody, V domains shown) VH: QVQLVQSGAEVKKPGASVKVSCKASGYTLTSYWMHWVRQAPGQGLEWMGEINPSQGRSNYNEKFKSRVTMTRDTSTSTVYMELSSLRSEDTAVYYCARRGVSGNYFDYWGQGTLVTVSS VL: DIQMTQSPSSLSASVGDRVTITCKASQDINTYLSWFQQKPGKSPKSLIYRSNILVSGVPSRFSGSGSGQDYTLTISSLQPEDFAIYYCLQYDEFPYTFGGGTKLEI", "unit-name": "nM", "IC50": 0.049}
{"binder": "Hu002c-8 (antibody, V domains shown) VH: QVQLVQSGAEVKKPGASVKVSCKASGYTLTSYWMHWVRQAPGQGLEWIGEINPSQGRSNYNEKFKSRVTLTVDRSTSTVYMELSSLRSEDTAVYYCARRGVSGNYFDYWGQGTLVTVSS VL: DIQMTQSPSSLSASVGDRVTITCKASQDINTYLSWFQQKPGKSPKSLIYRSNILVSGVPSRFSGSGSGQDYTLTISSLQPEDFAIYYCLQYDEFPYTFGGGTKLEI", "unit-name": "nM", "IC50": 0.025}
{"binder": "Hu001c-21 (antibody, V domains shown) VH: QVQLVQSGAEVKKPGASVKVSCKASGYTFTNYYIYWVRQAPGQRLEWIGWIYPGNLNIKYNEKFKGRVTITADKSASTAYMELSSLRSEDTAVYYCARDDNYAWFAYWGQGTLVTVSS VL: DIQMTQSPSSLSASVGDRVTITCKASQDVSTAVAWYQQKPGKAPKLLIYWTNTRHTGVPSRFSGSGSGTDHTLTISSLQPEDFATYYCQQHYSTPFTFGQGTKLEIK", "unit-name": "nM", "IC50": 0.12}
